# system name: Tyrosine-protein phosphatase non-receptor type 11 (Homo sapiens)
# procedure text: Inhibition of wildtype SHP2 (unknown origin)
property measured: IC50
Answer as a quantity: numeral, then unit.

Could you tell me which IC50 is on file for CC1(NCc2cn(CCOCCOCCOCCOCCNc3cccc4c3C(=O)N(C3CCC(=O)NC3=O)C4=O)nn2)CCN(c2cnc(-c3cccc(Cl)c3Cl)c(N)n2)CC1 (stereo unspecified) ?
714 nM

====

# system name: Tyrosine-protein phosphatase non-receptor type 11 (Homo sapiens, UniProt Q06124, F285S)
# Sequence (Q06124 2-593 F285S limits assumed): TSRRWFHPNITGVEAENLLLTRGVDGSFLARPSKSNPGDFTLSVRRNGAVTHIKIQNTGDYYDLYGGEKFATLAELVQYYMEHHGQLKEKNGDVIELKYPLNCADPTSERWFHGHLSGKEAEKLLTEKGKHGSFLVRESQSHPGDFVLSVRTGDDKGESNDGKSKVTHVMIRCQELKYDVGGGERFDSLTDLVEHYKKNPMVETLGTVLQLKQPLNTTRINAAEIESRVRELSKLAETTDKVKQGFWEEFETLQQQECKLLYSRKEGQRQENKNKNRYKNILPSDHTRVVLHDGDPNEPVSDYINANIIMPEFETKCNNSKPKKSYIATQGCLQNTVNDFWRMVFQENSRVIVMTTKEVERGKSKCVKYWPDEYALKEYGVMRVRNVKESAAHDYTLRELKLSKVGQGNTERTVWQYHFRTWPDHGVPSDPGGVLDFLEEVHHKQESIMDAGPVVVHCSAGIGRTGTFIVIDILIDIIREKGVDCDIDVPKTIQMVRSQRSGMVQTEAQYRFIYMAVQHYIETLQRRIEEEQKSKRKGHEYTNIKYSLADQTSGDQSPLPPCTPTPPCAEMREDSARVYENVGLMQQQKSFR
# procedure text: Inhibition of SHP2 F285S mutant (unknown origin) using DiFMUP as substrate incubated for 1 hr followed by substrate addition measured after 30 mins by plate reader method
property measured: IC50 (nM)
Numbers only, in nM.

Look at this molecule and give its reported IC50. Cc1nc(N2CCC3(CC2)CO[C@@H](C)[C@H]3N)cnc1-c1ccc(OCCOCCOCCCOCCCOCCCOCCCOCCOCCNCC(=O)COc2cccc3c2C(=O)N(C2CCC(=O)NC2=O)C3=O)c(Cl)c1Cl (stereo partly specified)
22.5
